B1: HDV Ribozyme (parent)
chain: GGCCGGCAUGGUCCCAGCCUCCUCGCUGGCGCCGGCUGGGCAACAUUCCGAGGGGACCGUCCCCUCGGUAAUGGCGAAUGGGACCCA

Variants of: B1
Assay: self-cleavage, relative activity (ratio to wild type); higher = more cleavage; co-transcriptional
Readout Type: self-cleavage
Reply briefly: the number, and no unit.

// worked examples, self-cleavage included
U79G A87C
0.656
G29C A42G
0
U12A U79C
0.166
G68A G82C
0.153

Quick one: self-cleavage for C24U G59A ?
0.623

For G2U G34U , what is its reported self-cleavage?
0.0369
